Each entry below lists one item and its recorded IC50 value.
biological target: Epidermal growth factor receptor [T790M,C797S,L858R] (UniProt P00533, C797S/L858R/T790M); experiment: Inhibitory Activity for EGFR (L858R/T790M/C797S) Kinase
Sequence (P00533 25-1210 T790M/C797S/L858R limits assumed): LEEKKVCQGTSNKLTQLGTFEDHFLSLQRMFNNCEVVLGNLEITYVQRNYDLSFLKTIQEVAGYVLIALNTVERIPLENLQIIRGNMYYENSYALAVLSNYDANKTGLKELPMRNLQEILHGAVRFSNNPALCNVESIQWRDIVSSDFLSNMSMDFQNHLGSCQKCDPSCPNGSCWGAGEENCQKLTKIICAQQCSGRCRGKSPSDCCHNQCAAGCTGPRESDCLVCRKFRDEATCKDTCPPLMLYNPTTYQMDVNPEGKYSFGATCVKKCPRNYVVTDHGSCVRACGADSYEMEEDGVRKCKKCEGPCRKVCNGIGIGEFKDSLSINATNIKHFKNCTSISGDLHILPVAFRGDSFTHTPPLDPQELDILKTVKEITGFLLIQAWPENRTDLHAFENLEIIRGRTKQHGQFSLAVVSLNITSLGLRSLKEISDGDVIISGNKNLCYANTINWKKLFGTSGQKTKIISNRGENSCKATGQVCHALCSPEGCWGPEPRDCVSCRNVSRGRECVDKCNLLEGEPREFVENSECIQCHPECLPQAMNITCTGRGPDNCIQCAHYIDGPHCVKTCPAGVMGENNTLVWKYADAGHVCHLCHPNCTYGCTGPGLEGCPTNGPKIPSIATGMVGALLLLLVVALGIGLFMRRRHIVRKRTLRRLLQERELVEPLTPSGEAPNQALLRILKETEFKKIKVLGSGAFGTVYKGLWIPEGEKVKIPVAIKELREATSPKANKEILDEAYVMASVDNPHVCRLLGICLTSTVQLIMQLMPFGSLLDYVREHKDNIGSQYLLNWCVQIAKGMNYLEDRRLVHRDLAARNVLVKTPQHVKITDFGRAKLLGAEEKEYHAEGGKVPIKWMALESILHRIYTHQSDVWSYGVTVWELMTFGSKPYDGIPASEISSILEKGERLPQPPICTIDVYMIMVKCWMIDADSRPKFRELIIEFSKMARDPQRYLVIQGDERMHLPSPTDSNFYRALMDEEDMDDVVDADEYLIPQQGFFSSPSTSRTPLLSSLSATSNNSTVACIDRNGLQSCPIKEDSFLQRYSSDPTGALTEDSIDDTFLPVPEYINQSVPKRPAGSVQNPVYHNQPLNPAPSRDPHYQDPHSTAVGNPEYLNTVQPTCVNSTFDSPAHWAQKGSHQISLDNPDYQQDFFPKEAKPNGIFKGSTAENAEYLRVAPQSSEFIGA
I'd appreciate it if you included the unit after the number.

Answer with the recorded IC50 of Cc1cc2cc(n1)-c1cnn(C)c1OCCC[C@@H](C1CC1)CN1/C(=N/C2=O)Nc2ccc(NC3CCCC3)cc21 only.
0.226 nM

Answer with the recorded IC50 of Cc1cc2cc(n1)-c1cnn(C)c1OCCC[C@@H](C1CC1)CN1/C(=N/C2=O)Nc2ccc(NC(=O)CCCN(C)C)cc21 only.
0.12 nM

Answer with the recorded IC50 of Cc1cc2cc(n1)-c1cnn(C)c1OCCC[C@@H](C1CC1)CN1/C(=N/C2=O)Nc2cc(NCC3COC3)ccc21 only.
0.035 nM

Answer with the recorded IC50 of Cc1cc2cc(n1)-c1cnn(C)c1OCCC[C@@H](C1CC1)CN1/C(=N/C2=O)Nc2cc(NCCCN)ccc21 only.
0.066 nM

Answer with the recorded IC50 of Cc1cc2cc(n1)-c1cnn(C)c1OCCC[C@@H](C1CC1)CN1/C(=N/C2=O)Nc2cc(NCC3(C)COC3)ccc21 only.
0.03 nM

Answer with the recorded IC50 of Cc1cc2cc(n1)-c1cnn(C)c1OCCC[C@@H](C1CC1)CN1/C(=N/C2=O)Nc2ccc(N[C@@H]3CC[C@@H](N(C)C)C3)cc21 only.
0.36 nM

Answer with the recorded IC50 of Cc1cc2cc(n1)-c1cnn(C)c1OCCC[C@@H](C1CC1)CN1/C(=N/C2=O)Nc2ccc(N[C@@H](C)CCN3CCCCC3)cc21 only.
0.17 nM

Answer with the recorded IC50 of Cc1cc2cc(n1)-c1cnn(C3CC3)c1OCCC[C@@H](C)CN1/C(=N/C2=O)Nc2cc(N[C@@H]3CCOC3)ccc21 only.
0.095 nM

###

Each entry below lists one item and its recorded IC50 value.
target: Epidermal growth factor receptor [T790M,C797S,L858R] (UniProt P00533, C797S/L858R/T790M); test: Inhibitory Activity for EGFR (L858R/T790M/C797S) Kinase
Just the number in nM, nothing appended.

Please review the entries below; each comes with its answer.
{"columns": ["Molecule", "Observable", "Observed result"],
 "data": [
  ["Cc1cc2cc(n1)-c1cnn(C)c1OCCC[C@@H](C1CC1)CN1/C(=N/C2=O)Nc2cc(N[C@H]3CC[C@H](N(C)C)C3)ccc21 [US20250034165, Example 135]", "IC50", 0.43],
  ["Cc1cc2cc(n1)-c1cnn(C)c1OCCC[C@@H](C1CC1)CN1/C(=N/C2=O)Nc2cc(NC3COC3(C)C)ccc21 (some centres undefined) [US20250034165, Example 30]", "IC50", 0.12],
  ["Cc1cc2cc(n1)-c1cnn(C)c1OCCC[C@@H](C1CC1)CN1/C(=N/C2=O)Nc2cc(NCCCCN)ccc21 [US20250034165, Example 53]", "IC50", 0.014]
]}

As a next step, examine the molecule that follows.
Answer with the recorded IC50 of Cc1cc2cc(n1)-c1cnn(C)c1OCCC[C@@H](C1CC1)CN1/C(=N/C2=O)Nc2cc(N(C)C3COC3)ccc21 [US20250034165, Example 41] only.
0.021

###

biological target: Epidermal growth factor receptor (EGFR)(L858R)(T790M) (Homo sapiens, UniProt P00533, L858R/T790M); experiment: Inhibitory Activity for EGFR (L858R/T790M) Kinase
Sequence (P00533 25-1210 T790M/L858R limits assumed): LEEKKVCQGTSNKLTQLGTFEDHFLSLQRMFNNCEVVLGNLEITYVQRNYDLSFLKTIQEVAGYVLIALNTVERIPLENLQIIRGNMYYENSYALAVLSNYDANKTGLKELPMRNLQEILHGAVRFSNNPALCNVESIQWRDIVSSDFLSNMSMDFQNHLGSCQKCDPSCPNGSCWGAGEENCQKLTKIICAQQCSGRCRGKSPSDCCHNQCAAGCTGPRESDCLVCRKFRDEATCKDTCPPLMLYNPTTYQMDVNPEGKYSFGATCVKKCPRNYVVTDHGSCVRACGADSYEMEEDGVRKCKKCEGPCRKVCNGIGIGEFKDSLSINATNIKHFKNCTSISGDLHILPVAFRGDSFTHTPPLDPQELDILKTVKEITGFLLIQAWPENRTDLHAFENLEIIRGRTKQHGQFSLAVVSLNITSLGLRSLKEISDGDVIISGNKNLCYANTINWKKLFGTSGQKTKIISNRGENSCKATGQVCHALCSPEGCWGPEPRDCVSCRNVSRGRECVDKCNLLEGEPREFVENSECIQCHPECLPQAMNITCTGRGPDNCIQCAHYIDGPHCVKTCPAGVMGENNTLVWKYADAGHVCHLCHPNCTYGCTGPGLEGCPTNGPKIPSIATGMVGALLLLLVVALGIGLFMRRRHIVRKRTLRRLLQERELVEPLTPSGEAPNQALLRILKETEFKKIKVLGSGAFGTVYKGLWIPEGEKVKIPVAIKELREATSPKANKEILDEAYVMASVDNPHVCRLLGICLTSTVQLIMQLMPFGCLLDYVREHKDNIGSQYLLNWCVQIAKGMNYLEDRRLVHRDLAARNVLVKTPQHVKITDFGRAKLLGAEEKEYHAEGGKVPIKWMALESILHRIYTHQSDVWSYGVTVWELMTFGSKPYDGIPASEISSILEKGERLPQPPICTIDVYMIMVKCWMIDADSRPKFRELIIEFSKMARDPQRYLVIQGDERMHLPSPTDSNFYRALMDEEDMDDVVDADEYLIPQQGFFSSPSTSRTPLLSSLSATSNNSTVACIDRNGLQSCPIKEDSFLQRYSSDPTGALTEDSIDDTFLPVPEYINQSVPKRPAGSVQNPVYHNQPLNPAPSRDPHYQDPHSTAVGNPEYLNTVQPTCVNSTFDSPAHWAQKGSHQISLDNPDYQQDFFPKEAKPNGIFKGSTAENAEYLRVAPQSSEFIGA
pIC50: −log10 of the molar value.
Outcome: Criterion met for pIC50 of at least 10; Criterion not met for anything lower.

These recorded examples may help you get a feel for the data.
{"columns": ["Smiles text", "Class assignment"],
 "data": [
  ["Cc1cc2cc(n1)-c1cnn(C)c1OCCC[C@@H](C1CC1)CN1/C(=N/C2=O)Nc2cc(NCCCCN(C)C)ccc21", "Criterion met"],
  ["Cc1cc2cc(n1)-c1cnn(C)c1OCCC[C@@H](C1CC1)CN1/C(=N/C2=O)Nc2cc(N[C@H]3CC[C@H](N(C)C)C3)ccc21", "Criterion not met"],
  ["Cc1cc2cc(n1)-c1cnn(C)c1OCCC[C@@H](C1CC1)CN1/C(=N/C2=O)Nc2ccc(N(C)CCN(C)C)cc21", "Criterion met"],
  ["Cc1cc2cc(n1)-c1cnn(C)c1OCCC[C@@H](C1CC1)CN1/C(=N/C2=O)Nc2ccc(N(C)C3CCN(C)CC3)cc21", "Criterion not met"]
]}

Is the recorded value of pIC50 equal to or greater than 10 for this compound? Cc1cc2cc(n1)-c1cnn(C)c1OCCC[C@@H](C1CC1)CN1/C(=N/C2=O)Nc2cc(NCCN3CCCC3)ccc21
Criterion met

###

target: Epidermal growth factor receptor [T790M,C797S,L858R] (UniProt P00533, C797S/L858R/T790M); experiment: Inhibitory Activity for EGFR (L858R/T790M/C797S) Kinase
Each entry below lists one item and its recorded pIC50 value.
pIC50 here: minus log base 10 of the concentration, concentration in moles per litre.

Please review the entries below; each comes with its answer.
{"columns": ["Smiles text", "pIC50"],
 "data": [
  ["Cc1cc2cc(n1)-c1cnn(C)c1OCCC[C@@H](C1CC1)CN1/C(=N/C2=O)Nc2ccc(N3CC[C@H](O)C3)cc21", 10.12],
  ["Cc1cc2cc(n1)-c1cnn(C)c1OCCC[C@@H](C1CC1)CN1/C(=N/C2=O)Nc2cc(N[C@H](C)CCN3CCCCC3)ccc21", 9.68]
]}

Answer with the recorded pIC50 of Cc1cc2cc(n1)-c1cnn(C)c1OCCC[C@@H](C1CC1)CN1/C(=N/C2=O)Nc2cc(NC[C@H]3COCCO3)ccc21 only.
10.46
